All figures here come from patent US20250154261A1.

# TESTED ON: Human CD33 R69G (human, UniProt P20138 18-259)
# Sequence (P20138 18-259 R69G): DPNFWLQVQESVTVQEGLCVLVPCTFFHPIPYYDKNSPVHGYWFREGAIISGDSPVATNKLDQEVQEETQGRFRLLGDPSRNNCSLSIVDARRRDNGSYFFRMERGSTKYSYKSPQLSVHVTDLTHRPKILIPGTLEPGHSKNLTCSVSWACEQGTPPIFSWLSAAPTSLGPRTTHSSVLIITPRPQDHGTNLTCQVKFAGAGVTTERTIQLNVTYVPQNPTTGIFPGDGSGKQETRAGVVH
# ASSAY: SPR captured Fab
MEASURED METRIC: kon (M⁻¹ s⁻¹)
Give the number; M⁻¹ s⁻¹ is assumed, so skip it.

>  <BINDER>
ADI-11807 Fab (Fab, V domains shown, Fab fragment; also called Ab5; I07) VH: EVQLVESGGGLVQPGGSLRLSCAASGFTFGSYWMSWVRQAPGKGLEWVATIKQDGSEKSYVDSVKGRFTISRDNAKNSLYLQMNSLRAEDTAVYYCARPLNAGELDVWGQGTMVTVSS VL: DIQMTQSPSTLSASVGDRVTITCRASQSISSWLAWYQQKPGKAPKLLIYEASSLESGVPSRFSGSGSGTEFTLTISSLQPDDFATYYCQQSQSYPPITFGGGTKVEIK

>  <kon (M⁻¹ s⁻¹)>
597000

$$$$

(Q) Give the reported kon for this binder. ADI-11812 Fab (Fab, V domains shown, Fab fragment; also called Ab24) VH: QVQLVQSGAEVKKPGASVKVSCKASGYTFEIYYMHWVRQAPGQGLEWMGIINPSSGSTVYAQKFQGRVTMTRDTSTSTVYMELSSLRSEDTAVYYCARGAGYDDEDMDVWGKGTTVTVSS VL: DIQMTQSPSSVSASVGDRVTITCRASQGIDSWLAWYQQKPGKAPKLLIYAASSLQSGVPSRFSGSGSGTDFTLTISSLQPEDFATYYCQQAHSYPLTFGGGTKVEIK
(A) 338000
